- assay_text: Body and organ weights of cynomolgus monkeys (Example 46)
- Assay type: in vivo
- Design: unit not given here
- condition_info: day 55, after euthanasia
Strand notation (5' to 3'): a small letter for the sugar, then the base; units joined by * are phosphorothioate-linked, units joined directly phosphodiester-linked; [ ] holds rarer units or linkages, { } end groups; capitals alone tell only the bases. e = 2'-O-(2-methoxyethyl) (MOE); [5mC] = 5-methylcytosine; d = 2'-deoxy (DNA)
Catalogue of Spleen weight values
outcome_measure: Spleen weight

1) ISIS 445522: 5-8-5 or 6-8-6 MOE microwalk gapmer (Table 44) (antisense eG*e[5mC]*eA*e[5mC]*eA*dG*dT*dT*dT*d[5mC]*dT*dG*dG*e[5mC]*eA*eG*eG*e[5mC]) ... 0.23
2) ISIS 449711: 3-8-3, 4-8-4, 2-10-2, 3-10-3 or 4-10-4 MOE microwalk gapmer (Table 46) (antisense eA*e[5mC]*dA*dG*dT*dT*dT*d[5mC]*dT*dG*dG*d[5mC]*eA*eG) ... 0.32
3) ISIS 449709: 3-8-3, 4-8-4, 2-10-2, 3-10-3 or 4-10-4 MOE microwalk gapmer (Table 46) (antisense eG*e[5mC]*eA*e[5mC]*dA*dG*dT*dT*dT*d[5mC]*dT*dG*dG*d[5mC]*eA*eG*eG*e[5mC]) ... 0.21
4) ISIS 449710: 3-8-3, 4-8-4, 2-10-2, 3-10-3 or 4-10-4 MOE microwalk gapmer (Table 46) (antisense e[5mC]*eA*e[5mC]*dA*dG*dT*dT*dT*d[5mC]*dT*dG*dG*d[5mC]*eA*eG*eG) ... 0.24

###

Catalogue of Inhibition of Factor 11 protein relative to the PBS control values
- Test system: Factor 11 protein
- assay_text: Factor 11 protein in monkey plasma by sandwich ELISA (Example 45)
- Format: in vivo, cynomolgus monkeys
- condition_info: day 8; escalating dose regimen; plasma ELISA
outcome_measure: Inhibition of Factor 11 protein relative to the PBS control (%)

1) ISIS 417002: MOE gapmer, nucleobases 1275 to 1318 of SEQ ID NO: 1 (Table 8) (antisense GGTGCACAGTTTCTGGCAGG; MOE gapmer, wing and gap sizes not given here) ... 0
2) ISIS 416858: MOE gapmer, nucleobases 1275 to 1318 of SEQ ID NO: 1 (Table 8) (antisense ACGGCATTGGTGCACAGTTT; MOE gapmer, wing and gap sizes not given here) ... 6
3) ISIS 416864: MOE gapmer, nucleobases 1275 to 1318 of SEQ ID NO: 1 (Table 8) (antisense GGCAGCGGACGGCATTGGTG; MOE gapmer, wing and gap sizes not given here) ... 7
4) ISIS 416850: MOE gapmer, nucleobases 1275 to 1318 of SEQ ID NO: 1 (Table 8) (antisense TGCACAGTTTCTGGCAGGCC; MOE gapmer, wing and gap sizes not given here) ... 8
5) ISIS 416838: MOE gapmer, nucleobases 1018 to 1042 of SEQ ID NO: 1 (Table 6) (antisense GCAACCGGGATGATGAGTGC; MOE gapmer, wing and gap sizes not given here) ... 3

###

- assay_text: Tolerability in Sprague-Dawley rats: kidney function, urine protein/creatinine (Example 35)
- condition_info: Sprague-Dawley rats; plasma; 50 mg/kg s.c. twice per week for 6 weeks
Catalogue of BUN values
outcome_measure: BUN (mg/dL)

1. ISIS 416858: MOE gapmer, nucleobases 1275 to 1318 of SEQ ID NO: 1 (Table 8) (antisense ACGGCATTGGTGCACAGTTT; MOE gapmer, wing and gap sizes not given here) ... 8
2. ISIS 416838: MOE gapmer, nucleobases 1018 to 1042 of SEQ ID NO: 1 (Table 6) (antisense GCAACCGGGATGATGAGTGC; MOE gapmer, wing and gap sizes not given here) ... 4
3. ISIS 417002: MOE gapmer, nucleobases 1275 to 1318 of SEQ ID NO: 1 (Table 8) (antisense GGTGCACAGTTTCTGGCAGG; MOE gapmer, wing and gap sizes not given here) ... 11
4. ISIS 416864: MOE gapmer, nucleobases 1275 to 1318 of SEQ ID NO: 1 (Table 8) (antisense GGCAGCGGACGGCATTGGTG; MOE gapmer, wing and gap sizes not given here) ... 5
5. ISIS 416850: MOE gapmer, nucleobases 1275 to 1318 of SEQ ID NO: 1 (Table 8) (antisense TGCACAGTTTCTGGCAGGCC; MOE gapmer, wing and gap sizes not given here) ... 5

###

- assay_text: Hematology assays in cynomolgus monkeys (Example 46)
- Assay type: in vivo
- condition_info: Day 31
Strand notation (5' to 3'): a small letter for the sugar, then the base; units joined by * are phosphorothioate-linked, units joined directly phosphodiester-linked; [ ] holds rarer units or linkages, { } end groups; capitals alone tell only the bases. e = 2'-O-(2-methoxyethyl) (MOE); [5mC] = 5-methylcytosine; d = 2'-deoxy (DNA)
outcome_measure: MCHC (g/dL)

1. ISIS 416850: MOE gapmer, nucleobases 1275 to 1318 of SEQ ID NO: 1 (Table 8) (antisense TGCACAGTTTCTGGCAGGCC; MOE gapmer, wing and gap sizes not given here) ... 31.0
2. ISIS 449707: 3-8-3, 4-8-4, 2-10-2, 3-10-3 or 4-10-4 MOE microwalk gapmer (Table 46) (antisense e[5mC]*eA*e[5mC]*eA*dG*dT*dT*dT*d[5mC]*dT*dG*dG*e[5mC]*eA*eG*eG) ... 29.8

###

- Tested on: human Factor 11 mRNA
- assay_text: Antisense inhibition of human Factor 11 in HepG2 cells by microwalk gapmers, lipofectin, 75 nM (Example 3)
- Format: cell-based
- condition_info: HepG2, lipofectin, ~24 h, gapmers targeted to nucleobases 656 to 704 of SEQ ID NO: 1
Strand notation (5' to 3'): a small letter for the sugar, then the base; units joined by * are phosphorothioate-linked, units joined directly phosphodiester-linked; [ ] holds rarer units or linkages, { } end groups; capitals alone tell only the bases. e = 2'-O-(2-methoxyethyl) (MOE); [5mC] = 5-methylcytosine; d = 2'-deoxy (DNA)
Quick rule: % inhibition of at least 80% means true (1), below that means false (0).

1) 416876 (antisense eT*e[5mC]*e[5mC]*dA*d[5mC]*dA*dT*dA*dA*dA*dT*dG*dT*d[5mC]*dT*dT*dT*eG*eT*eT) [compound 416876] ... false (0)
2) 416967 (antisense e[5mC]*e[5mC]*dT*dT*d[5mC]*dA*dT*dG*dT*d[5mC]*dT*dA*dG*dG*dT*e[5mC]*e[5mC]*eA*e[5mC]*eA) [compound 416967] ... false (0)
3) 416826 (antisense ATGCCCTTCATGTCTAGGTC; 5-10-5 gapmer, further chemistry not given here) [compound 416826] ... true (1)
4) 416806 (antisense eA*eA*eA*eT*eG*dT*d[5mC]*dT*dT*dT*dG*dT*dT*dG*d[5mC]*eA*eA*eG*e[5mC]*eG) [compound 416806] ... true (1)
5) 416885 (antisense eA*eT*eG*dT*d[5mC]*dT*dA*dG*dG*dT*d[5mC]*d[5mC]*dA*d[5mC]*dA*dT*dA*eA*eA*eT) [compound 416885] ... false (0)

###

- assay_text: Liver function, ALT, AST, bilirubin in cynomolgus monkeys (Example 45)
- Assay type: in vivo
- condition_info: plasma; day 64; escalating dose regimen
Catalogue of AST values
outcome_measure: AST (IU/L)

1) ISIS 416838: MOE gapmer, nucleobases 1018 to 1042 of SEQ ID NO: 1 (Table 6) (antisense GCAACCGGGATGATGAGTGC; MOE gapmer, wing and gap sizes not given here) ... 33
2) ISIS 416864: MOE gapmer, nucleobases 1275 to 1318 of SEQ ID NO: 1 (Table 8) (antisense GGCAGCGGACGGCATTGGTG; MOE gapmer, wing and gap sizes not given here) ... 46
3) ISIS 417002: MOE gapmer, nucleobases 1275 to 1318 of SEQ ID NO: 1 (Table 8) (antisense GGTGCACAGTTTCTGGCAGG; MOE gapmer, wing and gap sizes not given here) ... 37
4) ISIS 416850: MOE gapmer, nucleobases 1275 to 1318 of SEQ ID NO: 1 (Table 8) (antisense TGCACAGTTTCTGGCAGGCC; MOE gapmer, wing and gap sizes not given here) ... 56
5) ISIS 416858: MOE gapmer, nucleobases 1275 to 1318 of SEQ ID NO: 1 (Table 8) (antisense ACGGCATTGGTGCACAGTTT; MOE gapmer, wing and gap sizes not given here) ... 50

###

- System: blood coagulation
- assay_text: PT and aPTT assay in cynomolgus monkeys (Example 46)
- Type: in vivo
- condition_info: Day −5; platelet poor plasma; relative to PBS group
Strand notation (5' to 3'): a small letter for the sugar, then the base; units joined by * are phosphorothioate-linked, units joined directly phosphodiester-linked; [ ] holds rarer units or linkages, { } end groups; capitals alone tell only the bases. e = 2'-O-(2-methoxyethyl) (MOE); [5mC] = 5-methylcytosine; d = 2'-deoxy (DNA)
outcome_measure: aPTT ratio relative to PBS group

1) ISIS 449708: 3-8-3, 4-8-4, 2-10-2, 3-10-3 or 4-10-4 MOE microwalk gapmer (Table 46) (antisense eA*e[5mC]*eA*dG*dT*dT*dT*d[5mC]*dT*dG*dG*e[5mC]*eA*eG) ... 1.01
2) ISIS 449709: 3-8-3, 4-8-4, 2-10-2, 3-10-3 or 4-10-4 MOE microwalk gapmer (Table 46) (antisense eG*e[5mC]*eA*e[5mC]*dA*dG*dT*dT*dT*d[5mC]*dT*dG*dG*d[5mC]*eA*eG*eG*e[5mC]) ... 0.91

Reference source: patent US20230263822A1
